# PROCEDURE DETAILS: Microsomal stability (intrinsic clearance), mouse liver microsomes
# Type: in vitro ADME
# ASSAY CONDITIONS: pH 7.4
Give 1 when the value for microsomal CLint is at least 40 µL/min/mg. Give 0 when it is less.

Would you please look over these solved cases?
{"COMPOUND": "Cn1ncc2c(=O)[nH]c(CCCC(=O)N3CCC(C(=O)c4ccc(F)cc4)CC3)nc21 [Compound C48]", "CAT": 1}
{"COMPOUND": "COc1ccc(C(=O)C2CCN(C(=O)CCCc3nc4c(c(=O)[nH]3)COCC4)CC2)cc1C [Compound C199]", "CAT": 1}
{"COMPOUND": "COc1ccc(C(=O)C2CCN(C(=O)CCCc3nn4cccc4c(=O)[nH]3)CC2)cn1 [Compound C137]", "CAT": 1}
{"COMPOUND": "Cn1cc(C(=O)C2CCN(C(=O)CCCc3cn4c(F)ccc4c(=O)[nH]3)CC2)cn1 [Compound C208]", "CAT": 0}
{"COMPOUND": "COc1ccc(C(=O)C2CCN(C(=O)CCCc3nc4c(cnn4C)c(=O)[nH]3)CC2)cc1F [Compound C42]", "CAT": 1}

// switching to the query compound
Input line: Determine whether measured microsomal CLint meets or exceeds 40 µL/min/mg for Cn1ncc2c(=O)[nH]c(CCCC(=O)N3CCC(c4cnc(N)c(-c5ncccn5)c4)CC3)nc21 [Compound C45]
Output line: 1

---

# EXPERIMENTAL TARGET: TNKS2 (Homo sapiens, UniProt Q9H2K2)
# Construct: GST-tagged Tnks-2 (873-1166 aa, prepared in-house); made in house
# Sequence (Q9H2K2 873-1166): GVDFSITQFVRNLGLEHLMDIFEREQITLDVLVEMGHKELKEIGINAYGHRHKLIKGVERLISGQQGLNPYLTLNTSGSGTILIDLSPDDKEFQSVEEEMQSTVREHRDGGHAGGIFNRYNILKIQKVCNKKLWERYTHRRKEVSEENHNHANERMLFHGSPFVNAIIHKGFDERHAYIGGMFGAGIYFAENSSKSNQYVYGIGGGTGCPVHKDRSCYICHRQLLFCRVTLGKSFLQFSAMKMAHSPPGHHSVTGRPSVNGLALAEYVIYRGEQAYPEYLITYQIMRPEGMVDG
# PROCEDURE DETAILS: TNKS2 activity ELISA (autoparsylation assay)
# Assay type: biochemical
# ASSAY CONDITIONS: GST-tagged Tnks-2 (873-1166 aa); read-out: IC50 [M] TNKS2 ELISA
Structures can show the parent of a compound that is named as a salt.
QUANTITY: log10 of IC50 (log10 of the value in M)
Heads up, the numbers here are log10 of IC50 in M units.

// below: answered compounds
{"COMPOUND": "COc1ccc(C(=O)C2CCN(C(=O)CCCc3cn4nc(C)cc4c(=O)[nH]3)CC2)cn1", "EXPERIMENTAL TARGET": "TNKS2 (Homo sapiens, UniProt Q9H2K2)", "log10 of IC50": -9.27}
{"COMPOUND": "COc1ccc(C(=O)C2CCN(C(=O)CCCc3cn4cncc4c(=O)[nH]3)CC2)cc1", "EXPERIMENTAL TARGET": "TNKS2 (Homo sapiens, UniProt Q9H2K2)", "log10 of IC50": -9.89}
{"COMPOUND": "Cc1cc2c(=O)[nH]c(CCCC(=O)N3CCC(C(=O)c4ccc(C(C)(C)O)cc4)CC3)nn2c1", "EXPERIMENTAL TARGET": "TNKS2 (Homo sapiens, UniProt Q9H2K2)", "log10 of IC50": -7.77}
{"COMPOUND": "CC(C)c1cc(=O)[nH]c(CCCC(=O)N2CCC(C(=O)c3cnn(C)c3)CC2)n1 [Compound C257, trifluoroacetate]", "EXPERIMENTAL TARGET": "TNKS2 (Homo sapiens, UniProt Q9H2K2)", "log10 of IC50": -7.24}
{"COMPOUND": "CC(C)(O)c1ccc(C(=O)C2CCN(C(=O)CCCc3nc4c(c(=O)[nH]3)COCC4)CC2)cc1", "EXPERIMENTAL TARGET": "TNKS2 (Homo sapiens, UniProt Q9H2K2)", "log10 of IC50": -7.66}
{"COMPOUND": "Cc1ccc2c(=O)[nH]c(CCCC(=O)N3CCC(C(=O)c4ccc(F)cc4)CC3)nn12", "EXPERIMENTAL TARGET": "TNKS2 (Homo sapiens, UniProt Q9H2K2)", "log10 of IC50": -9.80}

Next:
Input line: Write down the reported log10 of IC50 of Cc1cc2c(=O)[nH]c(CCCC(=O)N3CCC(Oc4ccc(C#N)cc4)CC3)nn2c1 , test system: TNKS2 (Homo sapiens, UniProt Q9H2K2).
Output line: -7.60

These measurements were taken from patent US9809598B2.
